Below: a set of entries, each annotated with reported half-life.
- experimental_protocol: Half life in human
- Assay type: ADME, organism-based
- conditions_used: in vivo

Entry `Cc1cc(NC(=O)/C(C#N)=C(\O)C2CC2)ccc1C(F)(F)F` has what half-life?
3.5 h

Consider the additional compound presented here.
Entry C/C(O)=C(\C#N)C(=O)Nc1ccc(C(F)(F)F)cc1 [TERIFLUNOMIDE] has what half-life?
> 336 h

###

- system_tested: Voltage-gated inwardly rectifying potassium channel KCNH2 (Homo sapiens)
- Sequence (Q12809 whole entry): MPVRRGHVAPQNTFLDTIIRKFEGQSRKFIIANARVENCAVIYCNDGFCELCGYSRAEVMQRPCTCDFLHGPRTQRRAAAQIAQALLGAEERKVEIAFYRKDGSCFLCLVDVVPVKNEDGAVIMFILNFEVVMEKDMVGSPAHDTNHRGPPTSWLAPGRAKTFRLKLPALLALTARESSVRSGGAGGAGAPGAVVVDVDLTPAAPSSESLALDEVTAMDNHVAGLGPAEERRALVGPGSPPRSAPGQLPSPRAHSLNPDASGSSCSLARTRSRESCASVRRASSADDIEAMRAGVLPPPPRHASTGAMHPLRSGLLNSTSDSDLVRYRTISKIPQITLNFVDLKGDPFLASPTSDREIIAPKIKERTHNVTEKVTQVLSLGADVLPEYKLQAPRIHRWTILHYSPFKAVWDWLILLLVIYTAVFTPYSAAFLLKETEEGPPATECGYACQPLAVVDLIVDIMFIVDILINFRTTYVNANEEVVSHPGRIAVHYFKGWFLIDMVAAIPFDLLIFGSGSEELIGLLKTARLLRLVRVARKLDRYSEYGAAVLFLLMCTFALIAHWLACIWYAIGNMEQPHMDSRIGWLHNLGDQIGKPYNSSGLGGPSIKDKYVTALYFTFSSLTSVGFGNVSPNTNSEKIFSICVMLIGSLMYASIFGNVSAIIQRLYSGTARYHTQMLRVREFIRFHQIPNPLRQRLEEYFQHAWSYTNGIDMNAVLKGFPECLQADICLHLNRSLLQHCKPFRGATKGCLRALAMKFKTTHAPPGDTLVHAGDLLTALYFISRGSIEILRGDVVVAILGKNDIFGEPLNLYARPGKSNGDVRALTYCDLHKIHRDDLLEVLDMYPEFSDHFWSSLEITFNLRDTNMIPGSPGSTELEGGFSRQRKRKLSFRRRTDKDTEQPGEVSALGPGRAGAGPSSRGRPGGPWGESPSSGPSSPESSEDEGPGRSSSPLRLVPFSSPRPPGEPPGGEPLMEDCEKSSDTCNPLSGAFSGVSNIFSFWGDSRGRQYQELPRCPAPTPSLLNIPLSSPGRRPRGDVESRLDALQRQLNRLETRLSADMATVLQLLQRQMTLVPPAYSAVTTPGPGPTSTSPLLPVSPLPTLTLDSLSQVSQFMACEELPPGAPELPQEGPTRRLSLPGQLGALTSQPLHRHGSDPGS
- experimental_protocol: Inhibition of human ERG channel overexpressed in Chinese hamster CHOK1 cells by whole cell voltage clamp assay
- Format: cell-based, CHO-K1
pIC50: −log10 of the molar value.
quantity_name: pIC50

Entry `Cc1nc2cc(OC(F)(F)F)ccc2n1-c1ccc(C(=O)NC2CC2)s1` has what pIC50?
> 5.55
